# test: Mouse plasma stability protocol, up to 1 h (Examples 16-18)
# setup conditions: % Remaining of parent after 1 h incubation in mouse plasma at 37° C. (10 μM)
experimental endpoint: % Remaining (1 h)

| compound | reported |
| --- | --- |
| CCNC(=O)c1nnc(-c2cc(C(C)C)c(O)cc2O)n1-c1ccc(Oc2ccc(C(=O)N3CCC(C(=O)OC4(CC)C(=O)OCc5c4cc4n(c5=O)Cc5cc6c(CN(C)C)c(O)ccc6nc5-4)CC3)cc2)cc1 (stereo not drawn) [SDC-TRAP-0159] | 121% |
| CCc1c2c(nc3ccc(O)cc13)-c1cc3c(c(=O)n1C2)COC(=O)C3(CC)OC(=O)CN1CCN(c2ccc(-n3c(O)nnc3-c3cc(C(C)C)c(O)cc3O)cc2)CC1 (stereo not drawn) [SDC-TRAP-0056] | 78.4% |
| CCc1c2c(nc3ccc(O)cc13)-c1cc3c(c(=O)n1C2)COC(=O)C3(CC)OC(=O)N(C)Cc1ccc(OC(=O)N2CCN(Cc3ccc(-n4c(O)nnc4-c4cc(C(C)C)c(O)cc4O)cc3)CC2)cc1 (stereo not drawn) [SDC-TRAP-0356] | 70.9% |
